System: Pasteurella multocida
protocol.summary: Antimicrobial activity against Pasteurella multocida clinical isolate after 24 hrs by broth microdilution method
Type: functional
parameter: MIC (µM)
Give bare numbers, in µM.

{"chem.smiles": "O=C(Nc1ccc(C(F)(F)F)cc1)c1cc(Cl)ccc1O", "MIC, µM": 0.2}

Respectfully, I request MIC for each entry included below.
1. O=C(Nc1ccc(Cl)c(Cl)c1)c1cc(Cl)ccc1O
2. COc1ccc(NC(=O)c2cc(Cl)ccc2O)cc1
3. O=C(Nc1ccc([N+](=O)[O-])cc1)c1cc(Cl)ccc1O
4. Cc1ccc(NC(=O)c2cc(Cl)ccc2OC(=O)[C@H](Cc2ccccc2)NC(=O)OCc2ccccc2)cc1

[0.19, 28.8, 0.03, 7.36]

Respectfully, I request MIC for each entry included below.
1. O=C(N[C@@H](Cc1ccccc1)C(=O)Oc1ccc(Cl)cc1C(=O)Nc1ccc(Cl)c(Cl)c1)OCc1ccccc1
2. O=C(Nc1ccc(Cl)cc1)c1cc(Cl)ccc1O

0.83
3.54
